Where do the numbers come from? From PubChem BioAssay (NCATS).

# testSystem: Voltage-gated inwardly rectifying potassium channel KCNH2 (Homo sapiens) (UniProt Q12809)
# Sequence (Q12809 whole entry, looked up): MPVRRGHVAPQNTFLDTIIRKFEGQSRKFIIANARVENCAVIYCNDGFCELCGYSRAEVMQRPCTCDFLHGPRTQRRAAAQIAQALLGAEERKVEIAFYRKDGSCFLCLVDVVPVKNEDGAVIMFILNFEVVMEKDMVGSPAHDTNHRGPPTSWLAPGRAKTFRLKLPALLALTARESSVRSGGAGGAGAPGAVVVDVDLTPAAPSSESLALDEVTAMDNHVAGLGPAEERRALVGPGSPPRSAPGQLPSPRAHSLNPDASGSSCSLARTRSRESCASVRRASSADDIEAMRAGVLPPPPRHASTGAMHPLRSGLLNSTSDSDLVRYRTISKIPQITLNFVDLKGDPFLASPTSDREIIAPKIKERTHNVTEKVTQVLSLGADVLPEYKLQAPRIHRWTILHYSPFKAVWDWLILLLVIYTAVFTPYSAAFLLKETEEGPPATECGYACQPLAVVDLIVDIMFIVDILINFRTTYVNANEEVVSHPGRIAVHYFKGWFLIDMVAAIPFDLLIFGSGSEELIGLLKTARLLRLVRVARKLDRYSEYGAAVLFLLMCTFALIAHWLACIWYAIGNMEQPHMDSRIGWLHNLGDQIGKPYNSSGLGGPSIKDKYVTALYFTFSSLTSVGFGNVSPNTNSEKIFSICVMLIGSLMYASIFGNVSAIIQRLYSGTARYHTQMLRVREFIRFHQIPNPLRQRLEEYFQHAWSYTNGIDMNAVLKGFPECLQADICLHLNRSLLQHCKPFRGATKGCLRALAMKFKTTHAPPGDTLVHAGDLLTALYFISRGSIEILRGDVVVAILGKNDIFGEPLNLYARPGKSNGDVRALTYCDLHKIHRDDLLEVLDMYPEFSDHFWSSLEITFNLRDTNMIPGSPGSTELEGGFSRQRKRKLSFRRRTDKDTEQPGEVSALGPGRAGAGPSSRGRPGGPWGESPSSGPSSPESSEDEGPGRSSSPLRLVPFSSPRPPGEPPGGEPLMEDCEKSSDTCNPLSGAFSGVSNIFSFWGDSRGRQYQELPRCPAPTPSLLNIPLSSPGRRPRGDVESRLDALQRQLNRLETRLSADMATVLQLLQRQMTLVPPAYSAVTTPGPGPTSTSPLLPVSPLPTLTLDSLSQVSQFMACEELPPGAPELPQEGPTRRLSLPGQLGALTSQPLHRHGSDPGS
# method: qHTS Assay for Small Molecule Inhibitors of the Human hERG Channel Activity (AID 588834);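 further: lower thallium flux fluorescence means stronger hERG block; nearly all actives have a fitted effect of over 50% in size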
# reportedConditions: U2OS BacMam hERG, FluxOR thallium flux fluorescence; series mostly up to 46.1 µM
Records with an inconclusive call do not appear. The source made the active and inactive calls. The call rests on the fitted dose curve; in most records, active means well fitted inhibition curve with a large enough effect; inconclusive means small, poorly fitted or top-dose-only effect; inactive means flat fitted curve, though single readings scatter.
Write down the outcome that applies. Available outcomes: active, inactive

>  <compound>
CC(=O)NCCc1ccc(O)c(O)c1

>  <assignedClass>
inactive

$$$$
>  <compound>
CCSC(N)=Nc1ccc(C(F)(F)F)cc1

>  <assignedClass>
inactive

$$$$
>  <compound>
C[C@H](Cc1ccccc1)Nc1ncnc2c1ncn2[C@@H]1O[C@H](CO)[C@H](O)[C@H]1O

>  <assignedClass>
inactive

$$$$

What was the test verdict on CN1CCc2cc(Cl)c(O)cc2C(c2ccccc2)C1 (stereo not given) ? active

# fetch the recorded call for C[C@]12C=CC(=O)C=C1CCC1C2=CC[C@]2(C)[C@@H](C(=O)CN3CCN(c4cc(N5CCCC5)nc(N5CCCC5)n4)CC3)CC[C@@H]12 (stereo not given in full) here inactive

Please share the test call associated with CC(C)C1NC(=O)[C@H](CCCCN)NC(=O)[C@@H](Cc2c[nH]c3ccccc23)NC(=O)[C@H](Cc2ccc(O)cc2)NC(=O)[C@H](C)N(C)C(=O)[C@H](Cc2ccccc2)NC1=O (stereo not given in full) . inactive

Assay outcome for `COc1ccc2c(c1)c(CC(=O)O)c(C)n2Cc1ccc(F)cc1` : what was it? inactive

Dear colleague, could you share the recorded outcome for CN1C[C@H](C(=O)N[C@]2(C)O[C@@]3(O)C4CCCN4C(=O)[C@H](Cc4ccccc4)N3C2=O)C[C@@H]2c3cccc4[nH]cc(c34)C[C@H]21 (stereo not given in full) when you have a moment? active

Hey, what did the test say about `CNC(=O)[C@H]1O[C@@H](n2cnc3c(NCc4cccc(I)c4)ncnc32)[C@H](O)[C@H]1O` ? inactive

Hello, I am checking results. What call was entered for `CSc1nc(N)c2ncn([C@@H]3O[C@H](COP(=O)(O)OP(=O)(O)O)[C@H](O)[C@H]3O)c2n1` ? inactive

* * *

# method: qHTS for activators of dead-cell proteases activity screened against the NCATS CANVASS Library (AID 1347392);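 further: luminescence from protease leaking out of membrane-damaged cells cleaving impermeant substrate; rising signal means more cytotoxicity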
# reportedConditions: HepG2 cytotoxicity, dead-cell protease luminescence, 5 h; series mostly up to 46.1 µM
# Description: Natural products and their derivatives continue to be wellsprings of nascent therapeutic potential. […] To address this issue, the Canvass library of natural products was assembled (https://tripod.nih.gov/canvass), in collaboration with academic and industry researchers, for quantitative high-throughput screening (qHTS) across a diverse set of cell-based and biochemical assays. […] The amount of luminescence directly correlates with the percentage of cells undergoing cytotoxic stress. […]
Inconclusive results are not listed. The source made the active and inactive calls. Calls follow the shape of the dose curve; as a rule, active = well fitted curve in the direction sought with a large enough effect; inconclusive = small, poorly fitted or top-dose-only effect, or another doubt; inactive = no such curve, though single readings can be large or run the other way.
readoutName: activation (cytotoxicity)

>  <compoundString>
CN1C(=O)C(=O)N2C(=C[C@]3(c4c[nH]c5ccccc45)c4ccccc4N[C@H]23)C1=O

>  <observedResult>
inactive

$$$$
>  <compoundString>
C/C(=C\[C@H](C)C(=O)C[C@H](O)CC1CC(=O)NC(=O)C1)[C@@H]1OC(=O)CCCC/C=C/C[C@@H](O)[C@@H]1C

>  <observedResult>
inactive

$$$$
>  <compoundString>
CC1=C[C@H]2[C@H]3C(=O)C(c4ccc(O)cc4)=C[C@@]3(c3ccc(O)cc3)[C@@H]1C(=O)[C@]2(C)O

>  <observedResult>
inactive

$$$$
